This section presents compounds with their documented inhibition values.
target: Serine/threonine-protein kinase PLK1 (Homo sapiens); conditions: at 0.1 µM;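 further: reported values are mean PLK1 inhibition, measured as part of the GSK PKIS profiling set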

>  <Record Smiles>
O=C1Nc2ccccc2/C1=C/Nc1ccc(-n2cncn2)cc1

>  <inhibition>
4.56%

$$$$
>  <Record Smiles>
Fc1ccc(-c2nc3n(c2-c2ccncc2)CCS3)cc1

>  <inhibition>
3.85%

$$$$
>  <Record Smiles>
NS(=O)(=O)c1ccc(N/N=C2\C(=O)Nc3ccc(C(=O)NCCCn4ccnc4)cc32)cc1

>  <inhibition>
6.29%

$$$$
>  <Record Smiles>
CCc1cccc(CC)c1/C=C/c1cncc(C(=O)NC)c1

>  <inhibition>
1.32%

$$$$
>  <Record Smiles>
CN(C)CCCNc1nccc(-c2c(-c3ccc(F)cc3)nn3cc(C(F)(F)F)ccc23)n1

>  <inhibition>
2.56%

$$$$
>  <Record Smiles>
COc1ccc2cc(-c3c(-c4ccncc4)nc(-c4ccc(S(C)(=O)=O)cc4C)n3C)ccc2c1

>  <inhibition>
4.66%

$$$$
>  <Record Smiles>
CS(=O)(=O)CCNCc1cc(-c2cc3c(Nc4ccc(OCc5cccc(F)c5)c(Cl)c4)ncnc3s2)cs1

>  <inhibition>
6.1%

$$$$
>  <Record Smiles>
COc1cc(C)c(N(C)C(=O)CN(C)C)cc1Nc1nc(Nc2cccc(F)c2C(N)=O)c2cc[nH]c2n1

>  <inhibition>
2.25%

$$$$
>  <Record Smiles>
COc1cc(N2CCN(C(C)C)CC2)ccc1Nc1nc(Nc2ccc(F)cc2C(=O)NC[C@@H](O)CO)c2cc[nH]c2n1

>  <inhibition>
9.77%

$$$$
>  <Record Smiles>
COC(=O)Nc1nc2ccc(Sc3ccc(NC(=O)Nc4cc(C(F)(F)F)ccc4F)cc3)cc2[nH]1

>  <inhibition>
-0.3%

$$$$
>  <Record Smiles>
O=C1Nc2ccc(I)cc2C1=Cc1cc(Br)c(O)c(Br)c1

>  <inhibition>
5.57%

$$$$
>  <Record Smiles>
NC(=O)c1cc(-c2ccncc2)cc(-c2ccccc2)c1N

>  <inhibition>
4.45%

$$$$
>  <Record Smiles>
NC(=O)c1cc(-c2ccc(F)cc2)cc(-c2ccncc2)c1N

>  <inhibition>
5.25%

$$$$
>  <Record Smiles>
FC(F)(F)c1cccc(Nc2nccc(-c3cnn4nc(-c5ccccc5)ccc34)n2)c1

>  <inhibition>
2.06%

$$$$
>  <Record Smiles>
CCN(CC)Cc1ccc(Nc2nccc(-c3cnn4ncccc34)n2)cc1

>  <inhibition>
5.43%

$$$$
>  <Record Smiles>
CN1CCN(CCCNc2nc3ccc(Oc4ccc(NC(=O)Nc5cc(C(F)(F)F)ccc5F)cc4)cc3[nH]2)CC1

>  <inhibition>
1.78%

$$$$
>  <Record Smiles>
CCc1ccc(Oc2nccc(-c3c(-c4ccc(F)cc4)ncn3C3CCNCC3)n2)cc1

>  <inhibition>
4.18%

$$$$
>  <Record Smiles>
Cc1nnc(-c2ccc(C)c(-c3ccc(C(=O)NCc4ccc(Cl)cc4)cc3)c2)o1

>  <inhibition>
3.2%

$$$$
>  <Record Smiles>
O=C(Nc1n[nH]c2cc(-c3ccccc3)ccc12)C1CC1

>  <inhibition>
5.16%

$$$$
>  <Record Smiles>
O=C(Nc1n[nH]c2nc(-c3ccc(O)cc3)c(Br)cc12)C1CC1

>  <inhibition>
6.21%

$$$$
